Cited source for all entries: ChEMBL document CHEMBL1817541

# Test system: NCI-H460
# assay_remarks: Cytotoxicity against human NCI-H460 cell assessed as cell death at 100 uM after 12 hrs by Hoechst 33342/propidium iodide staining based fluorescence microscopy
# Type: functional
Provide the recorded Activity for the entries that follow.
Unit % implied. Number only.

Fill in the blank: the reported Activity of C[C@H]1O[C@H](O[C@H]2CC[C@@]3(C)[C@H](CC[C@@H]4[C@@H]3CC[C@]3(C)[C@@H](C5=CC(=O)OC5)CC[C@]43O)C2)CC[C@@H]1O[C@@H]1CC[C@H](O[C@@H]2CC[C@H](O)[C@@H](C)O2)[C@@H](C)O1 is ____. 53.1

Also check C[C@@H]1O[C@@H](O[C@H]2CC[C@@]3(C)[C@H](CC[C@@H]4[C@@H]3CC[C@]3(C)[C@@H](C5=CC(=O)OC5)CC[C@]43O)C2)[C@H](O)[C@H](O)[C@H]1O 100

Try this molecule too: C[C@@H]1O[C@@H](O[C@H]2CC[C@@]3(C)[C@H](CC[C@@H]4[C@@H]3CC[C@]3(C)[C@@H](C5=CC(=O)OC5)CC[C@]43O)C2)CC[C@H]1O 100

Ok, now C[C@H]1O[C@H](O[C@H]2[C@H](O)[C@H](O)[C@@H](O[C@H]3CC[C@@]4(C)[C@H](CC[C@@H]5[C@@H]4CC[C@]4(C)[C@@H](C6=CC(=O)OC6)CC[C@]54O)C3)O[C@@H]2C)[C@@H](O)[C@@H](O)[C@@H]1O 73.4

Can you handle C[C@H]1O[C@H](O[C@H]2CC[C@@]3(C)[C@H](CC[C@@H]4[C@@H]3CC[C@]3(C)[C@@H](C5=CC(=O)OC5)CC[C@]43O)C2)CC[C@@H]1O next? 100

What about C[C@@H]1O[C@@H](O[C@@H]2CC[C@H](O[C@@H]3CC[C@H](O[C@H]4CC[C@@]5(C)[C@H](CC[C@@H]6[C@@H]5CC[C@]5(C)[C@@H](C7=CC(=O)OC7)CC[C@]65O)C4)O[C@H]3C)O[C@H]2C)CC[C@H]1O ? 91.74

What about C[C@H]1O[C@H](O[C@H]2[C@H](O)[C@H](O)[C@@H](O[C@H]3[C@H](O)[C@H](O)[C@@H](O[C@H]4CC[C@@]5(C)[C@H](CC[C@@H]6[C@@H]5CC[C@]5(C)[C@@H](C7=CC(=O)OC7)CC[C@]65O)C4)O[C@@H]3C)O[C@@H]2C)[C@@H](O)[C@@H](O)[C@@H]1O ? 59.91

Please do the same for C[C@H]1O[C@H](O[C@H]2CC[C@@]3(C)[C@H](CC[C@@H]4[C@@H]3CC[C@]3(C)[C@@H](C5=CC(=O)OC5)CC[C@]43O)C2)[C@@H](O)[C@@H](O)[C@@H]1O as well. 100

// next record C[C@@H]1O[C@@H](O[C@@H]2CC[C@H](O[C@H]3CC[C@@]4(C)[C@H](CC[C@@H]5[C@@H]4CC[C@]4(C)[C@@H](C6=CC(=O)OC6)CC[C@]54O)C3)O[C@H]2C)CC[C@H]1O 100

Note, next up: C[C@@H]1O[C@@H](O[C@@H]2[C@@H](O)[C@@H](O)[C@H](O[C@@H]3[C@@H](O)[C@@H](O)[C@H](O[C@H]4CC[C@@]5(C)[C@H](CC[C@@H]6[C@@H]5CC[C@]5(C)[C@@H](C7=CC(=O)OC7)CC[C@]65O)C4)O[C@H]3C)O[C@H]2C)[C@H](O)[C@H](O)[C@H]1O 100

Please do the same for C[C@@H]1O[C@@H](O[C@@H]2[C@@H](O)[C@@H](O)[C@H](O[C@H]3CC[C@@]4(C)[C@H](CC[C@@H]5[C@@H]4CC[C@]4(C)[C@@H](C6=CC(=O)OC6)CC[C@]54O)C3)O[C@H]2C)[C@H](O)[C@H](O)[C@H]1O as well. 100

Let us now turn to C[C@H]1O[C@H](O[C@H]2CC[C@@]3(C)[C@H](CC[C@@H]4[C@@H]3CC[C@]3(C)[C@@H](C5=CC(=O)OC5)CC[C@]43O)C2)CC[C@@H]1O[C@@H]1CC[C@H](O)[C@@H](C)O1 71.1

---

# System: NCI-H460
# assay_remarks: Cytotoxicity against human NCI-H460 cell assessed as cell death at 100 nM after 12 hrs by Hoechst 33342/propidium iodide staining based fluorescence microscopy
# Type: functional
parameter_measured: Activity (%)
Please reply with the bare figure in % and do not write the unit itself.

# lookup: Activity of C[C@H]1O[C@H](O[C@H]2CC[C@@]3(C)[C@H](CC[C@@H]4[C@@H]3CC[C@]3(C)[C@@H](C5=CC(=O)OC5)CC[C@]43O)C2)CC[C@@H]1O[C@@H]1CC[C@H](O)[C@@H](C)O1 11.49

Also check C[C@H]1O[C@H](O[C@H]2[C@H](O)[C@H](O)[C@@H](O[C@H]3CC[C@@]4(C)[C@H](CC[C@@H]5[C@@H]4CC[C@]4(C)[C@@H](C6=CC(=O)OC6)CC[C@]54O)C3)O[C@@H]2C)[C@@H](O)[C@@H](O)[C@@H]1O 9.87

Next entry: C[C@@H]1O[C@@H](O[C@H]2CC[C@@]3(C)[C@H](CC[C@@H]4[C@@H]3CC[C@]3(C)[C@@H](C5=CC(=O)OC5)CC[C@]43O)C2)CC[C@H]1O 87.28

Another: C[C@@H]1O[C@@H](O[C@@H]2CC[C@H](O[C@@H]3CC[C@H](O[C@H]4CC[C@@]5(C)[C@H](CC[C@@H]6[C@@H]5CC[C@]5(C)[C@@H](C7=CC(=O)OC7)CC[C@]65O)C4)O[C@H]3C)O[C@H]2C)CC[C@H]1O 11.8

Another: C[C@H]1O[C@H](O[C@H]2[C@H](O)[C@H](O)[C@@H](O[C@H]3[C@H](O)[C@H](O)[C@@H](O[C@H]4CC[C@@]5(C)[C@H](CC[C@@H]6[C@@H]5CC[C@]5(C)[C@@H](C7=CC(=O)OC7)CC[C@]65O)C4)O[C@@H]3C)O[C@@H]2C)[C@@H](O)[C@@H](O)[C@@H]1O 7.17

Try C[C@@H]1O[C@@H](O[C@@H]2[C@@H](O)[C@@H](O)[C@H](O[C@@H]3[C@@H](O)[C@@H](O)[C@H](O[C@H]4CC[C@@]5(C)[C@H](CC[C@@H]6[C@@H]5CC[C@]5(C)[C@@H](C7=CC(=O)OC7)CC[C@]65O)C4)O[C@H]3C)O[C@H]2C)[C@H](O)[C@H](O)[C@H]1O next. 15.21

Same thing, different molecule: C[C@H]1O[C@H](O[C@H]2CC[C@@]3(C)[C@H](CC[C@@H]4[C@@H]3CC[C@]3(C)[C@@H](C5=CC(=O)OC5)CC[C@]43O)C2)CC[C@@H]1O[C@@H]1CC[C@H](O[C@@H]2CC[C@H](O)[C@@H](C)O2)[C@@H](C)O1 8.57

How about this molecule: C[C@H]1O[C@H](O[C@H]2CC[C@@]3(C)[C@H](CC[C@@H]4[C@@H]3CC[C@]3(C)[C@@H](C5=CC(=O)OC5)CC[C@]43O)C2)CC[C@@H]1O 24.88

What about this molecule? C[C@@H]1O[C@@H](O[C@H]2CC[C@@]3(C)[C@H](CC[C@@H]4[C@@H]3CC[C@]3(C)[C@@H](C5=CC(=O)OC5)CC[C@]43O)C2)[C@H](O)[C@H](O)[C@H]1O 96.96

Record: C[C@@H]1O[C@@H](O[C@@H]2[C@@H](O)[C@@H](O)[C@H](O[C@H]3CC[C@@]4(C)[C@H](CC[C@@H]5[C@@H]4CC[C@]4(C)[C@@H](C6=CC(=O)OC6)CC[C@]54O)C3)O[C@H]2C)[C@H](O)[C@H](O)[C@H]1O 20.51

C[C@@H]1O[C@@H](O[C@@H]2CC[C@H](O[C@H]3CC[C@@]4(C)[C@H](CC[C@@H]5[C@@H]4CC[C@]4(C)[C@@H](C6=CC(=O)OC6)CC[C@]54O)C3)O[C@H]2C)CC[C@H]1O ? 18.03

Item: C[C@H]1O[C@H](O[C@H]2CC[C@@]3(C)[C@H](CC[C@@H]4[C@@H]3CC[C@]3(C)[C@@H](C5=CC(=O)OC5)CC[C@]43O)C2)[C@@H](O)[C@@H](O)[C@@H]1O 12.28
